- METHOD: Single ascending dose and food-effect pharmacokinetics of naringin tablets in healthy humans
- Format: in vivo, human
- SETUP_CONDITIONS: both sexes, human, plasma, po, 80 mg, naringin 80 mg p.o. single dose
REPORTED_PROPERTY: Cmax (ng/mL)
Provide the reading as a plain figure in ng/mL.

Prompt: Which Cmax reading was recorded for the compound "C[C@@H]1O[C@@H](O[C@H]2[C@H](Oc3cc(O)c4c(c3)O[C@H](c3ccc(O)cc3)CC4=O)O[C@H](CO)[C@@H](O)[C@@H]2O)[C@H](O)[C@H](O)[C@H]1O" ?
Completion: 2.94

----------
- METHOD: Single-dose pharmacokinetics in rats (plasma, UHPLC/MS/MS)
- Type: in vivo, Sprague Dawley rats
- SETUP_CONDITIONS: both sexes, Sprague Dawley, rat, plasma, po, 10.5 mg/kg; read-out: Cmax
- Source text: Sixty healthy adult Sprague Dawley rats (180-220 g, half male and female) were purchased from the Guangdong Medical Laboratory Animal Center (Guangzhou, Guangdong, China). Thirty Beagle dogs (10-14 kg, half male and female) were purchased from the […] […] The compounds were detected by multiple reaction monitoring in the negative ion electrospray mode. […] All pharmacokinetic and excretion parameters were expressed as mean ± standard deviation (SD). […]
REPORTED_PROPERTY: Cmax (ng/mL)
Provide the reading as a plain figure in ng/mL.

Prompt: Which Cmax reading was recorded for the compound "C[C@@H]1O[C@@H](O[C@H]2[C@H](Oc3cc(O)c4c(c3)O[C@H](c3ccc(O)cc3)CC4=O)O[C@H](CO)[C@@H](O)[C@@H]2O)[C@H](O)[C@H](O)[C@H]1O" ?
Completion: 31.7

Sourced from paper PMC7118210
